- assay.summary: Stability in absence of porcine liver esterase assessed as compound remaining in 100 mM pH 7.4 phosphate buffer at 37 degC after 6 hrs
- Assay type: physicochemical
- experimental.context: phosphate buffer without porcine liver esterase, read-out: Stability
recorded.metric: remaining at 6 h

Would you kindly share the measured remaining at 6 h for `CN(CC(=O)OCc1cccc(Cl)c1)NC(=O)C[C@@H](N)CCN` ?
94%

* * *

Give Ratio for every item shown.
- Tested on: COS-7
- assay.summary: Mutation read through activity in african green monkey COS7 cells transfected with dual-reporter plasmid encoding beta-galactosidase and luciferase genes connected with TGA-containing mouse mdx gene exon 23 nucleotide sequence as premature termination codon assessed as ratio of luciferase activity to beta-galactosidase activity at 200 uM incubated for 48 hrs at 37 degC relative to basal level
- Format: functional, Chlorocebus aethiops
Numbers only.

molecule	obs.value
CN(CC(=O)O)NC(=O)[C@@H](N)CCCCN	1.01
CN[C@@H]1[C@@H](O)[C@@H](O[C@@H]2[C@@H](O)[C@H](O[C@H]3O[C@H]([C@@H](C)O)[C@@H](O)[C@H](O)[C@H]3N)[C@@H](N)C[C@H]2N)OC[C@]1(C)O	6.65
CN(CC(=O)O)NC(=O)C[C@@H](N)CCN	4.28
CN(CC(=O)OCc1ccc(Cl)cc1)NC(=O)C[C@@H](N)CCN	4.21
CN(CC(=O)OCc1ccc([N+](=O)[O-])cc1)NC(=O)C[C@@H](N)CCN	3.05
CN(CC(=O)OCc1cccc(Br)c1)NC(=O)C[C@@H](N)CCN	3.75

Quick batch: Ratio for everything below.
1. CN(CC(=O)O)NC(=O)[C@@H](N)CN
2. CN(CC(=O)OCc1ccccc1)NC(=O)C[C@@H](N)CCN
3. CN(CC(=O)OCc1ccccc1Br)NC(=O)C[C@@H](N)CCN
4. CN(CC(=O)OCc1ccccc1Cl)NC(=O)C[C@@H](N)CCN
5. CN(CC(=O)OCc1ccc(Br)cc1)NC(=O)C[C@@H](N)CCN
6. COc1cccc(COC(=O)CN(C)NC(=O)C[C@@H](N)CCN)c1
7. CN(CC(=O)O)NC(=O)C[C@H](N)C[C@@H](O)CN

[1.3, 4.04, 3.83, 3.34, 2.98, 3.71, 1.81]

Quick batch: Ratio for everything below.
1. CN(CC(=O)OCc1cccc([N+](=O)[O-])c1)NC(=O)C[C@@H](N)CCN
2. CN(CC(=O)O)NC(=O)[C@@H](N)CCCN
3. CN(CC(=O)OCc1ccccc1[N+](=O)[O-])NC(=O)C[C@@H](N)CCN
4. COc1ccccc1COC(=O)CN(C)NC(=O)C[C@@H](N)CCN
5. CN(CC(=O)NCc1ccccc1)NC(=O)C[C@@H](N)CCN
6. CN(CC(=O)OCc1cccc(Cl)c1)NC(=O)C[C@@H](N)CCN

[3.21, 0.99, 4.51, 3.1, 0.8, 4.9]

Quick batch: Ratio for everything below.
1. CN(CC(=O)O)NC(=O)CC(N)CN (single isomer, unassigned)
2. CCOC(=O)CN(C)NC(=O)C[C@@H](N)CCN

1.49
2.08

Quick batch: Ratio for everything below.
1. CCNC(=O)CN(C)NC(=O)C[C@@H](N)CCN
2. COc1ccc(COC(=O)CN(C)NC(=O)C[C@@H](N)CCN)cc1
3. CN(CC(=O)O)NC(=O)C[C@@H](N)CCCCN

1. 1.42
2. 3.25
3. 2.05

Quick batch: Ratio for everything below.
1. CN(CC(=O)O)NC(=O)[C@@H](N)CCN
2. CN(CC(=O)O)NC(=O)C[C@@H](N)CCCN

1: 1.07; 2: 2.94
